# Test system: wheat germ agglutinin (Triticum aestivum), Alexa647-labelled
# EXPERIMENT SUMMARY: Alexa647-WGA lectin binding to printed small molecules – biochemical, small-molecule microarray, 635/667 nm fluorescence, artefact control for SMM control-protein annotation, profiling panel (AID 1140);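 also: score merges 667 nm feature emission with signal to noise over triplicate slides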
# CONDITION SET: WGA-A647 binding, 635 nm fluorescence, higher = more signal
PARAMETER: composite z-score
Could you keep your reply to the number by itself?

Here's what some known entries look like.
| MOLECULE | composite z-score |
| --- | --- |
| CC(c1ccccc1)C(O)C1C=CC2C(=O)N(c3ccccc3)C(=O)C2N1Nc1ccccc1 (configuration not stated) | 1.02 |
| O=C1N(CCS(=O)(=O)c2ccccc2)c2ccccc2[C@@H]2OC(c3ccc(OCCCO)cc3)=N[C@]12Cc1ccccc1 | 0.668 |
| C=CC[C@]1(C(N)=O)COC(c2ccc(OCCCO)cc2)=N1 | 0.493 |
| O=C1O[C@H](c2ccccc2)[C@H](c2ccccc2)N2[C@H]1[C@@H](C(=O)NC[C@H](O)c1ccccc1)[C@]1(C(=O)Nc3ccc(C#CC4=CCCCC4)cc31)[C@H]2c1ccccc1OCCO | 1.05 |

Qu. Tell me the measured composite z-score of CN(C)C(=O)[C@]1(Cc2ccccc2)N=C(c2ccc(OCCCO)cc2)O[C@@H]1c1ccccc1N=[N+]=[N-] , please.
Ans. 0.702

Qu. Repeat with COc1ccc(C(=O)Nc2cccc(CN3C(=O)[C@]4(O[C@H](CCn5cc(CCO)nn5)[C@@H]([Si](C)(C)c5ccc(OC)cc5)[C@@H]4C)c4ccccc43)c2)cc1
Ans. 0.351

Qu. Repeat with O=C1C2C=CC(C(O)c3c(F)cccc3Cl)N(Nc3ccccc3F)C2C(=O)N1c1ccccc1 (configuration not stated)
Ans. 0.702
